- target-entity: human Siglec-7 on primary human monocyte-derived dendritic cells (human, UniProt Q9Y286 19-467)
- Sequence (Q9Y286 19-467): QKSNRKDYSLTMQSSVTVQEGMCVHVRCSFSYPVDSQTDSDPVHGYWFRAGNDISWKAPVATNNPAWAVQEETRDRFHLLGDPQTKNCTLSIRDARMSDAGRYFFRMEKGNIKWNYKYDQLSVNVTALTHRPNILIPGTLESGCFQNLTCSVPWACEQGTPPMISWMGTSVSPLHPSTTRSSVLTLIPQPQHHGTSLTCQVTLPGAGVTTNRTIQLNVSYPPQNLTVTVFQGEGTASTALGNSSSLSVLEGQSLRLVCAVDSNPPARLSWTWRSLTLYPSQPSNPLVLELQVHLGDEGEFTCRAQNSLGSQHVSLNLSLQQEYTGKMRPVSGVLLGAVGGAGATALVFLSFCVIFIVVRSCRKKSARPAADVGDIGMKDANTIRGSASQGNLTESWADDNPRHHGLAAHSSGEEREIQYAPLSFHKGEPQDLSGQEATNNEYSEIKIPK
- protocol-description: cell-based or functional assay
The entries below come with measured Receptor downregulation, (EC50) (pM) values attached.
result-type: Receptor downregulation, (EC50) (pM)

binder="S7AB-H8.9 (antibody, V domains shown) VH: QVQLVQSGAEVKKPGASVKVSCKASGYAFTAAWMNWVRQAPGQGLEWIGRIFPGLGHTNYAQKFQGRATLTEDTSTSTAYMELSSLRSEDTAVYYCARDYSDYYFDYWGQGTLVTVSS VL: DIQMTQSPSSLSASVGDRVTITCRGSQDINTYLNWYQQKPGKAPKLLIYYTSRLHSGVPSRFSGSGSGTDYTLTISSLQPEDFATYYCQQGNTKPWTFGQGTKLEIK" endpoint_value=116
binder="S7AB-H8.9.2 (antibody, V domains shown) VH: QVQLVQSGAEVKKPGASVKVSCKASGYAFTAAWMNWVRQARGQRLEWIGRIFPGLGHTNYAQKFQGRATLTEDTSTSTAYMELSSLRSEDTAVYYCARDYSDYYFDYWGQGTLVTVSS VL: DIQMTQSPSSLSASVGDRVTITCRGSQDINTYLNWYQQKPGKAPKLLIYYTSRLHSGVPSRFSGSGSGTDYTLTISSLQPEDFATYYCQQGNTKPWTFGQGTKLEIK" endpoint_value=118
binder="S7AB-H8.38 (antibody, V domains shown) VH: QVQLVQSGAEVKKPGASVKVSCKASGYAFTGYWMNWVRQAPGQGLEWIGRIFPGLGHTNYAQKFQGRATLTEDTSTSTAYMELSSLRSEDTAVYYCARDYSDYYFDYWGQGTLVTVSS VL: DIQMTQSPSSLSASVGDRVTITCRGSQDINTYLNWYQQKPGKAPKLLIYYTSRLHSGVPSRFSGSGSGTDYTLTISSLQPEDFATYYCQQGNVLPWTFGQGTKLEIK" endpoint_value=70.4
